src = patent US5626867A

protocol: in vivo
Set-up: species or system NMR-I mice
condition_info: mouse, iv, 5.7 mg/kg
Protocol: Each treatment group was composed of 3 animals. […] The plasma samples were analyzed by the procedure of Mross et al., (J. Chromatograph. 530 (1990), 192-199). […] The columns were dried for 10 minutes at 10 mbar. […] The residue was taken up in 50 μl (0.02 mol/l Na phosphate/acetonitrile, pH 3.9; 7:3, v/v) and analyzed by means of HPLC using a 4.6 mm×25 cm Merck Lichrocart C 18 RP 5 μm column. The flow rate was 1.5 ml/min. The excitation wavelength was 480 nm and the emission wavelength was 580 nm.
measured_attribute: concentration at 1 h (ng/mL)
Could you give me the number in ng/mL? Just the number is fine.

Ask | Which concentration at 1 h is reported for this compound? COc1cccc2c1C(=O)c1c(O)c3c(c(O)c1C2=O)C[C@@](O)(C(=O)CO)C[C@@H]3O[C@H]1C[C@H](N)[C@H](O)[C@H](C)O1 [free doxorubicin, doxorubicin]
Reply | 500
